Entries and their max RFU, maximum relative fluorescence units values follow.
Procedure Text: Primary screening of photostability of the CyNA library (time-course fluorescence, 8 h)
Assay type: physicochemical
Conditions: 10 μM in HEPES 100 mM pH 7.4, 2% DMSO
Provide a numeric answer; units are not to be included.

So what does the record say about max RFU, maximum relative fluorescence units for CCCN1/C(=C/C=C2\CCCC(/C=C/C3=[N+](CCC)c4ccccc4C3(C)C)=C2N(CCc2ccc([N+](=O)[O-])cc2)C(C)=O)C(C)(C)c2ccccc21 ? 527.6

Any idea what its max RFU, maximum relative fluorescence units is? The compound is CCCN1/C(=C/C=C2\CCCC(/C=C/C3=[N+](CCC)c4ccccc4C3(C)C)=C2N(Cc2ccc(OC)cc2OC)C(C)=O)C(C)(C)c2ccccc21 [CyNA-358] 487.4

Look up max RFU, maximum relative fluorescence units: CCCN1/C(=C/C=C2\CCCC(/C=C/C3=[N+](CCC)c4ccccc4C3(C)C)=C2N(Cc2ccc(F)cc2)C(C)=O)C(C)(C)c2ccccc21 549.9

Need max RFU, maximum relative fluorescence units, item CCCN1/C(=C/C=C2\CCCC(/C=C/C3=[N+](CCC)c4ccccc4C3(C)C)=C2N(CCCOC)C(C)=O)C(C)(C)c2ccccc21.[I-] 775.1
